In this section, each of the binders is paired with its reported EC50 (read off the curve).
# system-tested: his-labeled human IL-13 (immunogen A) (human) (UniProt P35225)
# test-name: ELISA: biotin-labeled immunogen A on streptavidin plate, antibody titrated, HRP secondary antibody, OD450
Please give the number followed by its unit.

Example results:
binder: 28A2E11 (lead antibody, mouse hybridoma) (antibody, V domains shown, Mouse monoclonal antibody purified from hybridoma supernatant on Protein G) VH: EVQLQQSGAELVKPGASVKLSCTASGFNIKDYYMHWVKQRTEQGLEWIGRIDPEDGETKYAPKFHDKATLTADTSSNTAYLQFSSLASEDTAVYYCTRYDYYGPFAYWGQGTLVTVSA VL: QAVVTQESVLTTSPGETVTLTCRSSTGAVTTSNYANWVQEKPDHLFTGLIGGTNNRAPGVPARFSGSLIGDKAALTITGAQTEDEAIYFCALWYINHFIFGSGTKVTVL
EC50 (read off the curve): 0.2 nM

binder: 35E2C3 (lead antibody, mouse hybridoma) (antibody, V domains shown, Mouse monoclonal antibody purified from hybridoma supernatant on Protein G) VH: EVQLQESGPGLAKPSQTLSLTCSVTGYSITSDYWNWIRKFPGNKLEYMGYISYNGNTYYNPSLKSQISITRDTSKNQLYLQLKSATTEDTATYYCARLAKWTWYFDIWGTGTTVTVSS VL: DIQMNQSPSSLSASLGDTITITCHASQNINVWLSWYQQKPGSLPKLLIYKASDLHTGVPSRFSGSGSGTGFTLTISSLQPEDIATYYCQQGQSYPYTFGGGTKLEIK
EC50 (read off the curve): 0.3 nM

binder: c28A2E11 (mouse-human chimeric IL-13 antibody) (antibody, V domains shown) VH: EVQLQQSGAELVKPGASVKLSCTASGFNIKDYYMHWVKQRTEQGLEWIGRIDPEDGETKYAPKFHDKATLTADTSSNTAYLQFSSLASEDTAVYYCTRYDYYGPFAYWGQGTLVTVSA VL: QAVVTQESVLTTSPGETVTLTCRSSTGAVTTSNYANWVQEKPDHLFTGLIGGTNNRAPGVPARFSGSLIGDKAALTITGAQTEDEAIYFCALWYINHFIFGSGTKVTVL
EC50 (read off the curve): 0.2 nM

# ---- query binder ----
Measured EC50 (read off the curve), c35E2C3 (mouse-human chimeric IL-13 antibody) (antibody, V domains shown) VH: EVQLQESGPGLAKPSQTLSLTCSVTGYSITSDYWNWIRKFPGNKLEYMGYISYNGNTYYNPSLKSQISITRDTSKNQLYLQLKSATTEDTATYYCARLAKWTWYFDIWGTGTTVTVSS VL: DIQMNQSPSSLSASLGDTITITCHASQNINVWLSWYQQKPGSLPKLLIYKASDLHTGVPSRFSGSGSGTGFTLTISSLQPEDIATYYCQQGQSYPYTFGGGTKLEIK : 0.4 nM
